Origin of values: paper PMC4791841

- subject of test: MimiCE (Acanthamoeba polyphaga mimivirus)
- Construct: the N-terminal RTPase domain (amino acids [aa] 1 to 237) of mimivirus capping enzyme (MimiCE); HisSmt3 (N, cleaved yes); made in house; host or cells: Escherichia coli
- experimental protocol: biochemical;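 note: mimivirus capping enzyme triphosphatase ATPase reaction, radiolabeled ATP hydrolysis to Pi quantified by TLC after 10 min, normalized to no-inhibitor control with 5% DMSO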
- Type: biochemical
reported metric: IC50

Fill in the blank: the reported IC50 of `O=C(/C=C/c1ccc(O)c(O)c1)O[C@@H]1C[C@](OC(=O)/C=C/c2ccc(O)c(O)c2)(C(=O)O)C[C@@H](OC(=O)/C=C/c2ccc(O)c(O)c2)[C@H]1O` is ____. 8.4 µM

One more molecule: O=C(/C=C/c1ccc(O)c(O)c1)O[C@@H]1[C@H](OC(=O)/C=C/c2ccc(O)c(O)c2)C[C@]2(OC(=O)/C=C/c3ccc(O)c(O)c3)C[C@H]1OC2=O [Compound 6A, 1,4,5-tricaffeoylquinide] 2 µM

Further, for `O=C(O)/C=C/c1ccc(O)c(O)c1` ? > 500 µM

Try `O=C(OC[C@H]1O[C@@H](OC(=O)c2cc(O)c(O)c(O)c2)[C@H](OC(=O)c2cc(O)c(O)c(O)c2)[C@@H](OC(=O)c2cc(O)c(O)c(O)c2)[C@@H]1OC(=O)c1cc(O)c(O)c(O)c1)c1cc(O)c(O)c(O)c1` next. 5.1 µM

Then this molecule: CC(=O)O[C@@]12C[C@@H](OC(=O)/C=C/c3ccc(O)c(O)c3)[C@@H](OC(=O)/C=C/c3ccc(O)c(O)c3)[C@@H](C1)OC2=O [Compound 6C, 1-acetyl,4,5-dicaffeoylquinide] 15 µM

Then O=C(OC1[C@H](OC(=O)c2ccccc2)CC(OC(=O)c2ccccc2)(C(=O)O)C[C@H]1OC(=O)c1ccccc1)c1ccccc1 (stereo partly shown) ? 20 µM

Repeat with O=C(/C=C/c1ccc(O)cc1)O[C@@H]1CC(O)(C(=O)O)C[C@@H](OC(=O)/C=C/c2ccc(O)cc2)C1O (stereo partly shown) > 500 µM

###

- subject of test: MimiCE (Acanthamoeba polyphaga mimivirus, UniProt Q5UQX1)
- Construct: the N-terminal RTPase domain (amino acids [aa] 1 to 237) of mimivirus capping enzyme (MimiCE); HisSmt3 (N, cleaved yes); made in house; host or cells: Escherichia coli
- Sequence (Q5UQX1 1-237): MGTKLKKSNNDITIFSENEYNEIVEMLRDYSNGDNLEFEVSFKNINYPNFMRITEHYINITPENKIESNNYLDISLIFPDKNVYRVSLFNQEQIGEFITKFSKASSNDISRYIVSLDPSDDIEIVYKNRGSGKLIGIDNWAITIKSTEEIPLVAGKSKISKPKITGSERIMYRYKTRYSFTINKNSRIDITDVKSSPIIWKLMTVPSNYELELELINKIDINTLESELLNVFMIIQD
- experimental protocol: biochemical
- Type: biochemical
- condition summary: ratio in parentheses
reported metric: IC50/IC50 TbCet1, MimiCE
Lab note: record just the number, no unit beside it.

Under MimiCE (Acanthamoeba polyphaga mimivirus, UniProt Q5UQX1): IC50/IC50 TbCet1, MimiCE value of O=C(/C=C/c1ccc(O)c(O)c1)O[C@@H]1[C@H](OC(=O)/C=C/c2ccc(O)c(O)c2)C[C@]2(OC(=O)/C=C/c3ccc(O)c(O)c3)C[C@H]1OC2=O [Compound 6A, 1,4,5-tricaffeoylquinide] ? 17

What would you report for `O=C(/C=C/c1ccc(O)c(O)c1)O[C@@H]1C[C@](OC(=O)/C=C/c2ccc(O)c(O)c2)(C(=O)O)C[C@@H](OC(=O)/C=C/c2ccc(O)c(O)c2)[C@H]1OC(=O)/C=C/c1ccc(O)c(O)c1` ? 108

Same for CC(=O)O[C@@]12C[C@@H](OC(=O)/C=C/c3ccc(O)c(O)c3)[C@@H](OC(=O)/C=C/c3ccc(O)c(O)c3)[C@@H](C1)OC2=O [Compound 6C, 1-acetyl,4,5-dicaffeoylquinide] 4

Follow-up entry: `O=C(CCO[C@@H]1O[C@H](CO)[C@@H](O)[C@H](O)[C@H]1O)c1ccc(O)cc1` 182
